assay: Antioxidant activity assessed as DPPH radical scavenging activity incubated for 2 hrs under dark condition by absorbance based assay; assay type: functional
Field: EC50. Provide a value for each of the compounds that follow.

Task: Entry under review: COc1cc2c(cc1OC)C(=O)C(CC1CCN(Cc3ccccc3)CC1)C2 (centres undefined) . Reported EC50?
Result: > 1000 µM

Task: Here is the next compound: O=c1c(O)c(-c2ccc(O)c(O)c2)oc2cc(O)cc(O)c12
Result: 13.8 µM

Task: Try the compound COc1cc2c(cc1O)C(=O)C(CC1CCN(Cc3ccccc3)CC1)C2 (centres undefined)
Result: > 400 µM

Task: Next compound up: O=C1c2cc(O)c(O)cc2CC1CC1CCN(Cc2ccccc2)CC1 (centres undefined)
Result: 29.5 µM

Task: Now consider COc1cc2c(cc1O)CC(CC1CCN(Cc3ccccc3)CC1)C2=O (centres undefined) and answer again.
Result: 32.5 µM

Task: // next record Cc1c(C)c2c(c(C)c1O)CC[C@@](C)(CCC[C@H](C)CCC[C@H](C)CCCC(C)C)O2
Result: 27.5 µM

Task: How about COc1cc2c(cc1OC(=O)CCCCC1CCSS1)C(=O)C(CC1CCN(Cc3ccccc3)CC1)C2 (centres undefined) ?
Result: > 400 µM

Task: Moving on to COc1cc2c(cc1OCCCCCC1CCSS1)CC(CC1CCN(Cc3ccccc3)CC1)C2=O (centres undefined)
Result: > 400 µM

Task: Let us now turn to COc1cc2c(cc1OCCCCCC1CCSS1)C(=O)C(CC1CCN(Cc3ccccc3)CC1)C2 (centres undefined)
Result: > 400 µM
